Ref: patent US20230391832A1

molecular target: T1, AAV9 capsids (adeno-associated virus serotype 9, Assembled icosahedral capsid of about 60 subunits (VP1, VP2, VP3 from one gene). One VP1 chain is given. Example 1's screen does not say whether the capsids were full or empty.); test: ELISA, AAV9 capsids coated on plate, His-tagged variant in E. coli lysate, anti-His-HRP luminescence; signal relative to HSA (A) or to PKD2 control (B)
T1 construct: Assembled virus capsid
REPORTED PROPERTY: fold specificity for AAV9 capsids

A selection of reference data follows.
Data request, read-out fold specificity for AAV9 capsids, for SEQ ID NO 33 (designed binder, N-terminal Met printed as (M)) MATGVRAVPGNENSLEIEELARFAVDEHNKKENALLEFVRVVKAKEQVVAGTMYYLTLEAKDGGKKKLYEAKVWVKVRRDIVVPRNFKELQEFKPVGDA
> 3 fold

Then SEQ ID NO 32 (designed binder, N-terminal Met printed as (M)) MATGVRAVPGNENSLEIEELARFAVDEHNKKENALLEFVRVVKAKEQVVAGTMYYLTLEAKDGGKKKLYEAKVWVKSRSVRIWYSNFKELQEFKPVGDA ?
> 3 fold

Then SEQ ID NO 27 (designed binder, N-terminal Met printed as (M)) MATGVRAVPGNENSLEIEELARFAVDEHNKKENALLEFVRVMKAKEQVVAGTMYYLTLEAKDGGKKKLYEAKVWVKGVIYAYSYSNFKELQEFKPVGDA ?
> 3 fold

Then SEQ ID NO 39 (designed binder, N-terminal Met printed as (M)) MATGVRAVPGNENSLEIEELARFAVDEHNKKENALLEFVRVVKAKEQVVAGTMYYLTLEAKDGGKKKLYEAKVWVKWRAVRWWWGNFKELQEFKPVGDA ?
> 3 fold

Then MCAIDNFPCNWYIDCIGATWVCDGIIDCIDIADEYDCTPTP (designed binder, N-terminal Met printed as (M)) [SEQ ID NO 12] ?
> 3 fold

Then SEQ ID NO 44 (designed binder, N-terminal Met printed as (M)) MATGVRAVPGNENSLEIEELARFAVDEHNKKENALLEFVRMVKAKEQYISVDKWVATMYYLTLEAKDGGKKKLYEAKVWVKYGGSCWRGGNFKELQEFKPVGDA ?
> 3 fold

Then SEQ ID NO 46 (designed binder, N-terminal Met printed as (M)) MATGVRAVPGNENSLEIEELARFAVDEHNKKENALLEFVRVVKAKEQVVAGTMYYLTLEAKDGGKKKLYEAKVWVKIGIPIRIWSNFKELQEFKPVGDA ?
> 3 fold

Then SEQ ID NO 36 (designed binder, N-terminal Met printed as (M)) MATGVRAVPSNENSLEIEELARFAVDEHNKKENALLEFVRVVKAKEQVVAGTMYYLTLEAKDGGKKKLYEAKVWVKAIKYVRYKANFKELQEFKPVGDA ?
> 3 fold

# next binder below
Data request, read-out fold specificity for AAV9 capsids, for SEQ ID NO 42 (designed binder, N-terminal Met printed as (M)) MATGVRAVPGNENSLEIEELARFAVDEHNKKENALLEFVRVVKAKEQVVAGTMYYLTLEAKDGGKKKLYEAKVWVKGRYSVYWYVNFKELQEFKPVGDA
> 3 fold
